experimentSummary: Binding affinity to drug-resistant HIV-1 protease I13V/G16E/V32I/L33F/K45I/M46I/V82F/I84V/A71V/L76V/I54L mutant expressed in Escherichia coli TAP-106 cells assessed as inhibition constant using a EDANS/DABCYL FRET-peptide substrate preincubated for 1 hr followed by substrate addition measured after 1 hr by fluorogenic assay
Set-up: species or system Human immunodeficiency virus 1
metric: Ki (nM)
Just the number please, in nM, no unit attached.

Below: 2 molecules and their reported Ki.
CCOP(=O)(COc1ccc(C[C@H](NC(=O)O[C@H]2CO[C@H]3OCC[C@H]32)[C@H](O)CN(C[C@@H](C)CC)S(=O)(=O)c2ccc3ncsc3c2)cc1)OCC: 9.03
CCOP(=O)(COc1ccc(C[C@H](NC(=O)O[C@H]2CO[C@H]3OCC[C@H]32)[C@H](O)CN(CC(CC)CC)S(=O)(=O)c2ccc(CO)cc2)cc1)OCC: 81.2

Let's switch to this molecule now.
Name the recorded Ki for CCOP(=O)(COc1ccc(C[C@H](NC(=O)O[C@H]2CO[C@H]3OCC[C@H]32)[C@H](O)CN(CC(CC)CC)S(=O)(=O)c2ccc3c(c2)OCO3)cc1)OCC .
6.9

----------
Reported CC50 values for a set of compounds
Test system: HEK-293T
experimentSummary: Cytotoxicity against HEK293T cells incubated for 48 hrs by absorbance based assay
Format: toxicity, cell-based
experimentalContext: human, hek-293t, 48 h
Please append the unit to your numeric answer.

CCOP(=O)(COc1ccc(C[C@H](NC(=O)O[C@H]2CO[C@H]3OCC[C@H]32)[C@H](O)CN(CC(CC)CC)S(=O)(=O)c2ccc(N)cc2)cc1)OCC: 44 µM
CCOP(=O)(COc1ccc(C[C@H](NC(=O)O[C@H]2CO[C@H]3OCC[C@H]32)[C@H](O)CN(CC(C)C)S(=O)(=O)c2ccc3ncsc3c2)cc1)OCC: 45 µM
CCOP(=O)(COc1ccc(C[C@H](NC(=O)O[C@H]2CO[C@H]3OCC[C@H]32)[C@H](O)CN(CC(C)C)S(=O)(=O)c2ccc3c(c2)OCO3)cc1)OCC: 68 µM
CCOP(=O)(COc1ccc(C[C@H](NC(=O)O[C@H]2CO[C@H]3OCC[C@H]32)[C@H](O)CN(CC(CC)CC)S(=O)(=O)c2ccc(CO)cc2)cc1)OCC: 69 µM
CCOP(=O)(COc1ccc(C[C@H](NC(=O)O[C@H]2CO[C@H]3OCC[C@H]32)[C@H](O)CN(CC(CC)CC)S(=O)(=O)c2ccc3c(c2)OCO3)cc1)OCC: 21 µM
CCOP(=O)(COc1ccc(C[C@H](NC(=O)O[C@H]2CO[C@H]3OCC[C@H]32)[C@H](O)CN(C[C@@H](C)CC)S(=O)(=O)c2ccc(N)cc2)cc1)OCC: 92 µM

Shifting focus to the compound that follows.
Quick one: CC50 of CCOP(=O)(COc1ccc(C[C@H](NC(=O)O[C@H]2CO[C@H]3OCC[C@H]32)[C@H](O)CN(CC(CC)CC)S(=O)(=O)c2ccc3ncsc3c2)cc1)OCC ?
22 µM

----------
Listed here are molecules together with their documented EC50.
Tested on: Human immunodeficiency virus 1
experimentSummary: Antiviral activity against wild-type HIV-1 NL4-3 infected in human TZM-bl cells using virus particles harvested from 24 hrs drug-treated human CEM cells infected with virus assessed as reduction in viral infection measured after 48 hrs in TZM-bl cells by Firefly luciferase based assay
Assay type: functional, organism-based
experimentalContext: Human immunodeficiency virus 1, NL4-3, TZM-bl
Give a bare numeral; the unit nM is implied.

CCC(CC)CN(C[C@@H](O)[C@H](Cc1ccccc1)NC(=O)O[C@H]1CO[C@H]2OCC[C@H]21)S(=O)(=O)c1ccc(OC)cc1: 3

Which EC50 is listed for CCOP(=O)(COc1ccc(C[C@H](NC(=O)O[C@H]2CO[C@H]3OCC[C@H]32)[C@H](O)CN(CC(CC)CC)S(=O)(=O)c2ccc3c(c2)OCO3)cc1)OCC ?
3

Bench note: what EC50 did CC(C)CN(C[C@@H](O)[C@H](Cc1ccccc1)NC(=O)O[C@H]1CO[C@H]2OCC[C@H]21)S(=O)(=O)c1ccc(N)cc1 show?
8

Query: EC50; subject: CCC(CC)CN(C[C@@H](O)[C@H](Cc1ccccc1)NC(=O)O[C@H]1CO[C@H]2OCC[C@H]21)S(=O)(=O)c1ccc2c(c1)OCO2
6

Recorded EC50 for CCOP(=O)(COc1ccc(C[C@H](NC(=O)O[C@H]2CO[C@H]3OCC[C@H]32)[C@H](O)CN(CC(CC)CC)S(=O)(=O)c2ccc(OC)cc2)cc1)OCC , please?
5

Just for reference, ChEMBL document CHEMBL5620363 is where these values come from.
